Record set of IC50 for target or system aldose reductase (Rattus norvegicus, UniProt P07943).
# number only, unit µM dropped from output

Here's what some known entries look like.
# compound, experimental.system, IC50 [µM]
measured = [
    ("OCC1OC(Oc2cc3c(O)cc(O)cc3[o+]c2-c2ccc(O)c(O)c2)C(O)C(O)C1O (centres unmarked) [Example 2 (C3G), cyanidin-3-O-glucoside]", "aldose reductase (Rattus norvegicus, UniProt P07943)", 4.7),
    ("OCC1OC(Oc2cc3c(O)cc(O)cc3[o+]c2-c2cc(O)c(O)c(O)c2)C(O)C(O)C1O (centres unmarked) [Example 2 (D3G), delphinidin-3-O-glucoside]", "aldose reductase (Rattus norvegicus, UniProt P07943)", 12.5),
    ("CC1OC(OCC2OC(Oc3cc4c(O)cc(O)cc4[o+]c3-c3ccc(O)c(O)c3)C(O)C(O)C2O)C(O)C(O)C1O (centres unmarked) [Example 2 (C3R), cyanidin-3-O-rutinoside]", "aldose reductase (Rattus norvegicus, UniProt P07943)", 2.5),
    ("CC1OC(OCC2OC(Oc3cc4c(O)cc(O)cc4[o+]c3-c3cc(O)c(O)c(O)c3)C(O)C(O)C2O)C(O)C(O)C1O (centres unmarked) [Example 2 (D3R), delphinidin-3-O-rutinoside]", "aldose reductase (Rattus norvegicus, UniProt P07943)", 15.2),
]

Value of IC50 reported for the compound C[C@@H]1O[C@@H](OC[C@H]2O[C@@H](Oc3c(-c4ccc(O)c(O)c4)oc4cc(O)cc(O)c4c3=O)[C@H](O)[C@@H](O)[C@@H]2O)[C@H](O)[C@H](O)[C@H]1O [Rutin, rutin, reference compound] is 9
